Where do the numbers come from? From paper PMC11544713.

# protocol: Acute intervention: nutrikinetics of plasma metabolites after ingestion of L. citriodora extract (untargeted HPLC-ESI-QTOF-MS)
# reported conditions: 2 h after L. citriodora extract
property name: mean chromatographic area in plasma, T2
Give a plain numeric answer without units written out.

molecule	property name	observed value
COc1cc(CCCO)ccc1OC1OC(CO)C(O)C(O)C1O (single isomer, unassigned; isomer 1) [dihydroconiferin isomer 1, dihydroconiferin]	mean chromatographic area in plasma, T2	0
CC(C)=C1CC2(C)C(=CC1=O)CCC(OC1OC(CO)C(O)C(O)C1O)C2C (centres unmarked) [isopetasoside]	mean chromatographic area in plasma, T2	200
CC1=CC(=O)CC(C)(C)C1(O)/C=C/C(C)=C/COC1OC(CO)C(O)C(O)C1O (single isomer, unassigned; isomer 3) [abscisic alcohol 11-glucoside isomer 3, abscisic alcohol 11-glucoside]	mean chromatographic area in plasma, T2	13
CC(O)/C=C\C/C=C\C/C=C\CCCCCCCC(=O)O (centres unmarked) [17-hydroxylinolenic acid]	mean chromatographic area in plasma, T2	445

[in] Request the reported mean chromatographic area in plasma, T2 associated with CC1=CC(=O)CC(C)(C)C1(O)/C=C/C(C)=C/COC1OC(CO)C(O)C(O)C1O (single isomer, unassigned; isomer 2) [abscisic alcohol 11-glucoside isomer 2, abscisic alcohol 11-glucoside]
[out] 176

---

Entries and their mean chromatographic area in plasma, T6
# protocol: Acute intervention: nutrikinetics of plasma metabolites after ingestion of O. europaea extract (untargeted HPLC-ESI-QTOF-MS)
# reported conditions: 6 h after O. europaea extract
# Protocol: A total of 25 healthy individuals participated, with an average age of 27 ± 9 years and a mean body mass index (BMI) of 23 ± 3 kg/m^2. […] Metabolite nutrikinetics were studied using PKSolver, an add-in program for pharmacokinetic data analysis in Microsoft Excel. The time to reach the maximum concentration (observed Tmax) was calculated for each significant metabolite. As an untargeted metabolomic approach was used to detect the circulating metabolites, these were not quantified. […]
Give a plain numeric answer without units written out.

molecule	observed value
COc1cc(-c2oc3cc(O[C@@H]4O[C@@H](C)[C@H](O)[C@@H](O)[C@H]4O)cc(O)c3c(=O)c2O[C@@H]2O[C@H](CO)[C@@H](O)[C@H](O)[C@H]2O)ccc1O	0
Cc1cccc(O)c1O	16
CC(=O)Oc1cc2c(c(C)c1OC(C)=O)CC=C1[C@@]2(C)CC[C@@]2(C)C3C[C@](C)(C(=O)O)CC[C@]3(C)CC[C@]12C (stereo partly shown) [dihydrocelastryl diacetate]	81

Let us move to another entry and its mean chromatographic area in plasma, T6.
[in] Request the reported mean chromatographic area in plasma, T6 associated with C[C@]12CC[C@@H](O[C@@H]3O[C@H](C(=O)O)[C@@H](O)[C@H](O)[C@H]3O)C[C@@H]1CC[C@@H]1[C@@H]2C(=O)C[C@@]2(C)[C@H]1CC[C@]2(O)[C@@H](O)CO [cortolone-3-glucuronide]
[out] 82

---

# protocol: Acute intervention: nutrikinetics of plasma metabolites after ingestion of O. europaea extract (untargeted HPLC-ESI-QTOF-MS)
# reported conditions: human plasma, 500 mg capsule of O. europaea (OE) extract, oral, mean ± SD
Entries and their observed Tmax: time required to reach Cmax
Record the result as a number with its unit.

Example entries and their recorded answers appear below.
molecule	observed value
O=C(Oc1cc(O)c2c(c1)O[C@H](c1cc(O)c(O)c(O)c1)[C@H](O)C2)c1cc(O)c(O)c(O)c1 [epigallocatechin 7-O-gallate]	1 ± 0 h
COc1cc(C)cc(OC)c1OC	1 ± 0 h

Let us move to another entry and its observed Tmax: time required to reach Cmax.
[in] Request the reported observed Tmax: time required to reach Cmax associated with OC[C@H]1O[C@@H](OCc2ccoc2)[C@H](O)[C@@H](O)[C@@H]1O (single isomer, unassigned; isomer 2) [3-furanmethanol glucoside isomer 2, 3-furanmethanol glucoside]
[out] 1 ± 0 h
